- CONDITION_SUMMARY: human gut metagenome, 24 h, 2 µM; note: call rule not given here
Where a SMILES comes first, the peptide text is derived from it. [ ]: non-standard residue; d: D form. pGlu = O=C1CC[C@@H](C(=O)O)N1; Thz = O=C(O)[C@@H]1CSCN1
VALUE_KIND: Bacterial Biotransformation

Answered examples (6):
INSERT INTO assay_data (molecule, result) VALUES
  ('O=C1CC[C@@H](C(=O)N2CSC[C@H]2C(=O)O)N1 [PIDOTIMOD] ([pGlu]-[Thz]-OH)', 'Compound NOT metabolized'),
  ('CCCCCCOC(=O)/N=C(/N)c1ccc(NCc2nc3cc(C(=O)N(CCC(=O)OCC)c4ccccn4)ccc3n2C)cc1.CS(=O)(=O)O [DABIGATRAN ETEXILATE MESYLATE]', 'Compound NOT metabolized'),
  ('CN(C)CC(c1ccc(O)cc1)C1(O)CCCCC1.O=C(O)CCC(=O)O (stereo unspecified) [DESVENLAFAXINE SUCCINATE]', 'Compound NOT metabolized'),
  ('CS(=O)(=O)O.OC(CCN1CCCCC1)(c1ccccc1)c1ccccc1 [PRIDINOL METHANESULFONATE]', 'Compound NOT metabolized'),
  ('Nc1c2c(nc3ccccc13)CCCC2', 'Compound NOT metabolized'),
  ('O=C1NCC2(CCN(CCc3ccccc3)CC2)O1 [FENSPIRIDE]', 'Compound NOT metabolized');

Dear colleague, could you please provide Bacterial Biotransformation for the molecules listed below?
1. CC(=O)CC(c1ccccc1)c1c(O)c2ccccc2oc1=O (stereo unspecified)
2. CO[C@]12C[C@@H](COC(=O)c3cncc(Br)c3)CN(C)[C@@H]1Cc1cn(C)c3cccc2c13
3. CCC(=O)NCC[C@@H]1CCc2ccc3c(c21)CCO3
4. CN1C[C@H](C(=O)N[C@]2(C)O[C@@]3(O)[C@@H]4CCCN4C(=O)[C@H](Cc4ccccc4)N3C2=O)C=C2c3cccc4[nH]cc(c34)C[C@H]21.CN1C[C@H](C(=O)N[C@]2(C)O[C@@]3(O)[C@@H]4CCCN4C(=O)[C@H](Cc4ccccc4)N3C2=O)C=C2c3cccc4[nH]cc(c34)C[C@H]21.O=C(O)C(O)C(O)C(=O)O [ERGOTAMINE TARTRATE]
5. O=P(O)(O)O.c1ccc(CN(CC2=NCCN2)c2ccccc2)cc1 [ANTAZOLINE PHOSPHATE]

A)
Compound metabolized
Compound NOT metabolized
Compound metabolized
Compound NOT metabolized
Compound NOT metabolized

Here are 5 molecules. What values of Bacterial Biotransformation were reported for them?
1. O=C(NCc1ccccc1)OCCO [BURAMATE]
2. CCc1nc(N)nc(N)c1-c1ccc(Cl)cc1
3. CN/C(=N/CCSCc1nc[nH]c1C)NC#N
4. COc1cc2c(c(OC)c1OC)-c1ccc(OC)c(=O)cc1[C@@H](NC(C)=O)CC2
5. Br.CN(C)CCCC1(c2ccc(F)cc2)OCc2cc(C#N)ccc21 (stereo unspecified) [CITALOPRAM HYDROBROMIDE]

A)
1. Compound NOT metabolized
2. Compound NOT metabolized
3. Compound metabolized
4. Compound NOT metabolized
5. Compound NOT metabolized

* * *

- ASSAY: The drug is tested on WLS-090 corresponding to human gut metagenome with ENA study accession number: PRJEB37062 and ENA sample accession number: ERS12561753 for biotransformation under anaerobic condition. The drug concentrations were measured over 9 timepoints collected between 0 and 24 hours of incubation by liquid-chromatography-coupled mass spectrometry (LC–MS)
- CONDITION_SUMMARY: 2 µM
VALUE_KIND: Bacterial Biotransformation

Example entries begin here.
INSERT INTO results (molecule, value_kind, result) VALUES
  ('CC(C)(Oc1ccc(CCNC(=O)c2ccc(Cl)cc2)cc1)C(=O)O [BEZAFIBRATE]', 'Bacterial Biotransformation', 'Compound metabolized'),
  ('Nc1nc2ccc(OC(F)(F)F)cc2s1', 'Bacterial Biotransformation', 'Compound metabolized'),
  ('CNC(=C[N+](=O)[O-])NCCSCc1ccc(CN(C)C)o1', 'Bacterial Biotransformation', 'Compound NOT metabolized'),
  ('Cc1ccc(-c2cc(C(F)(F)F)nn2-c2ccc(S(N)(=O)=O)cc2)cc1', 'Bacterial Biotransformation', 'Compound NOT metabolized'),
  ('Cc1ccc(-c2nc3ccc(C)cn3c2CC(=O)N(C)C)cc1', 'Bacterial Biotransformation', 'Compound metabolized');

Hi, could you look up Bacterial Biotransformation for each item in my list?
1. O=C(Nc1ccccc1)OCC(CN1CCCCC1)OC(=O)Nc1ccccc1 (stereo not drawn)
2. COC1=CC(=O)C[C@@H](C)[C@]12Oc1c(Cl)c(OC)cc(OC)c1C2=O
3. Cc1ccc(S(=O)(=O)NC(=O)NN2CC3CCCC3C2)cc1 (stereo not drawn) [GLICLAZIDE]
4. CN1C(=O)CCS(=O)(=O)C1c1ccc(Cl)cc1 (stereo not drawn)
5. CCCc1nc(C(C)(C)O)c(C(=O)OCc2oc(=O)oc2C)n1Cc1ccc(-c2ccccc2-c2nnn[nH]2)cc1

A)
Compound metabolized
Compound NOT metabolized
Compound metabolized
Compound metabolized
Compound NOT metabolized

Below are 4 molecules. Give each one its Bacterial Biotransformation.
1. C#C[C@]1(O)CC[C@H]2[C@@H]3CCC4=CC(=O)CC[C@@H]4[C@H]3CC[C@@]21CC
2. CC(=O)OCC(=O)[C@@]12N=C(C)O[C@@H]1C[C@H]1[C@@H]3CCC4=CC(=O)C=C[C@]4(C)[C@H]3[C@@H](O)C[C@@]12C
3. CN(C)CCc1c[nH]c2ccc(Cn3cncn3)cc12.O=C(O)c1ccccc1 [RIZATRIPTAN BENZOATE]
4. Cc1cc2c(cc1S(N)(=O)=O)S(=O)(=O)CCC2

A)
Compound metabolized
Compound metabolized
Compound NOT metabolized
Compound NOT metabolized

Hey, quick one: what's Bacterial Biotransformation for each of these?
1. Cc1ccc(/C(=C\CN2CCCC2)c2ccccn2)cc1
2. O=c1[nH]c2ccccc2n1CCCN1CCC(n2c(=O)[nH]c3cc(Cl)ccc32)CC1
3. CN1CCN(CC/C=C2/c3ccccc3Sc3ccc(S(=O)(=O)N(C)C)cc32)CC1

A)
["Compound NOT metabolized", "Compound NOT metabolized", "Compound metabolized"]

Q) Consider the molecule shown here: COc1ccccc1OCC(O)CN1CCN(CC(=O)Nc2c(C)cccc2C)CC1 (stereo not drawn) What is its recorded Bacterial Biotransformation?
A) Compound NOT metabolized
